Biological target: T1, recombinant cynomolgus monkey TREM-1 (cynomolgus monkey, UniProt A0A2K5VHG8 21-204)
T1 construct: Soluble recombinant protein injected as SPR analyte; construct not described; also called cTREM-1; cynomolgus TREM-1
T1 sequence: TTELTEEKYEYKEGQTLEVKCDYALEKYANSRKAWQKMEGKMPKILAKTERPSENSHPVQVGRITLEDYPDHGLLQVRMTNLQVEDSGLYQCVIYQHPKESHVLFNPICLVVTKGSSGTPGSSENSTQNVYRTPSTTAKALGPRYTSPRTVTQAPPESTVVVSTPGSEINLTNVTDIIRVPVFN
Experiment: SPR, Fab immobilised, cynomolgus TREM-1 injected; replicate 2
ASSAY_READOUT: Kd (nM)
Numbers only, in nM.

Fill in the blank: the reported Kd of humanized anti-TREM-1 Fab fragment INO-10F-4 (Fab, V domains shown, Fab) VH: EVQLVESGGALVKPGGSLRLSCAASGFNIGNTYIHWVRQAPGKGLEWVGRIDPAGGRTKYAPKVKGRFTISADDSKNTAYLQMNSLKTEDTAVYYCTGHRGGTMDYWGQGTLVTVSS VL: EIVLTQSPATLSLSPGERATLSCRASQSVSNYGISFLNWYQQKPGQAPRLLIYAAEYRGRGIPARFSGSGSGTDFTLTISSLEPEDFAVYYCQQSSNVPYTFGQGTKVEIK is ____.
24.4

Reported Kd, binder humanized anti-TREM-1 Fab fragment INO-10F-3 (Fab, V domains shown, Fab) VH: EVQLVESGGALVKPGGSLRLSCAASGFNIDNTYIHWVRQAPGKGLEWIGRIDPAGGRTKYDPKVKGRFTISADTSKNTAYLQMNSLKTEDTAVYYCTGHYGGTMDYWGQGTLVTVSS VL: EIVLTQSPATLSLSPGERATLSCRASESVDNYGISFLNWYQQKPGQAPRLLIYAAEYRGRGIPARFSGSGSGTDFTLTISSLEPEDFAVYYCQQSRHVPYTFGQGTKVEIK : ____
7.68

Look up Kd for this binder: humanized anti-TREM-1 Fab fragment INO-10F-2 (Fab, V domains shown, Fab) VH: EVQLVESGGALVKPGGSLRLSCAASGFNIGNTYIHWVRQAPGKGLEWIGRIDPAGGRTKYSPKVQGRFTISAPTSKNTAYLQMNSLKTEDTAVYYCTGHRGGTMDYWGQGTLVTVSS VL: EIVLTQSPATLSLSPGERATLSCRASQSVSNYGISFLNWYQQKPGQAPRLLIYAASYQKRGIPARFSGSGSGTDFTLTISSLEPEDFAVYYCQQSSNFPWTFGQGTKVEIK
28.5

New cases:
Any idea what Kd was measured for humanized anti-TREM-1 Fab fragment INO-10F-6 (Fab, V domains shown, Fab) VH: EVQLVESGGALVKPGGSLRLSCAASGFNIGNTYIHWVRQAPGKGLEWVGRIDPAGGRTKYAPKVKGRFTISADDSKNTLYLQMNSLKTEDTAVYYCTGHRGGTMDYWGQGTLVTVSS VL: EIVLTQSPATLSLSPGERATLSCRASQSVSNYGISFLNWYQQKPGQAPRLLIYAAEYRARGIPARFSGSGSGTDFTLTISSLEPEDFAVYYCQQSSNVPYTFGQGTKVEIK ?
53.4

Data origin, for the record: patent US20240254225A1
